Assay: physchem
Format: physicochemical
Conditions: 1-octanol / 0.2M phosphate buffer pH 7.4, room temperature, triplicate; read-out: LogDoct,7.4
readout.label: logD
Answers are plain numbers.

Go through the list and state logD for each entry.
1. CSc1ccc(Cl)c(NC(=N)N([11CH3])c2cccc(OC(F)F)c2)c1 [[^11C]PK083]
2. CSc1ccc(Cl)c(NC(=N)N(C)c2cccc(OC[18F])c2)c1 [[^18F]PK209]

1. 1.76
2. 1.45

Hello, the source for this data is patent US20140154182A1, in case you need it.
